measured_on: T1, human CD200R1 expressed on cells (Jurkat-CD200R1, U937-CD200R1, HH cells) (human, UniProt Q8TD46 25-348)
T1 construct: whole, on cells; also called HH (CRL-2105); cell surface-expressed CD200R1
T1 sequence (looked up): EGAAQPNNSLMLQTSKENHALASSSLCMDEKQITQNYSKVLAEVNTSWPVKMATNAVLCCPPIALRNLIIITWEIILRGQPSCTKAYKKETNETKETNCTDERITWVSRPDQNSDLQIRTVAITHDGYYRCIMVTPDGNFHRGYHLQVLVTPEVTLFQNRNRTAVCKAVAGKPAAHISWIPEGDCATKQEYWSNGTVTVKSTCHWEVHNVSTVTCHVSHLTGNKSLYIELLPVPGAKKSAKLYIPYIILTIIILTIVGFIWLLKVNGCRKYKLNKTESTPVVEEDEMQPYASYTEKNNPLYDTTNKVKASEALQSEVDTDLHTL
test_method_notes: flow cytometry, HH cells; drawn table

binder | Geo mean (%) at 0.05 nM
P001018 scFv mutant L3-R92H (scFv) scFv: QVQLVQSGAEVKKPGASVKVSCKASGYTFTSYVMHWVRQAPGQGLEWMGYINPYNDDTNYNEKFKGRVTMTRDTSTSTVYMELSSLRSEDTAVYYCAREDYYGSRWGYWGQGTLVTVSSGGGGSGGGGSGGGGSDIVLTQSPASLAVSPGQRATITCRASKSVSTSGYSYMHWYQQKPGQPPKLLIYLASNLESGVPARFSGSGSGTDFTLTINPVEANDTANYYCQHSHELLTFGQGTKVEIK | 3.3
P001018 scFv mutant L3-R92S (scFv) scFv: QVQLVQSGAEVKKPGASVKVSCKASGYTFTSYVMHWVRQAPGQGLEWMGYINPYNDDTNYNEKFKGRVTMTRDTSTSTVYMELSSLRSEDTAVYYCAREDYYGSRWGYWGQGTLVTVSSGGGGSGGGGSGGGGSDIVLTQSPASLAVSPGQRATITCRASKSVSTSGYSYMHWYQQKPGQPPKLLIYLASNLESGVPARFSGSGSGTDFTLTINPVEANDTANYYCQHSSELLTFGQGTKVEIK | 1.7
